Data origin, for the record: ChEMBL document CHEMBL4513216

# Protocol: Toxicity liver stage against HepG2, at 10uM
# Assay type: cell-based
# Design: test concentration 10 uM, cell line HepG2-A16-CD81EGFP
# Stated Conditions: human, HepG2-A16-CD81EGFP cells; read-out: INHIBITION

{"columns": ["Compound", "Unit Symbol", "cytotoxicity at 10 µM"],
 "data": [
  ["CC(=O)Nc1cccc([C@H]2C[C@@H](NC(C)=O)CCO2)c1", "%", -0.825],
  ["CC(C)(C)c1nnc2n1C(C(=O)N1CCN(c3ncccn3)CC1)CC2 (stereo not drawn)", "%", -7.46],
  ["Cc1cc(CN2C[C@@H](C)[C@@]3(CCN(C)C3=O)C2)oc1C", "%", 8.34],
  ["O=C(CN1CC(c2ccccc2)CC1=O)N1CCN(c2nccs2)CC1 (stereo not drawn)", "%", -1.7],
  ["CCCN(CC)Cc1ccc(C(=O)NCC2COCCO2)c(=O)[nH]1 (stereo not drawn)", "%", 4.78],
  ["COCC(=O)N1CC(=O)c2sc(Nc3ccc(F)cc3F)nc2C1", "%", -7.02],
  ["CC(=O)Nc1nc(C(=O)NC(C)c2ccc(F)c(F)c2)cs1 (stereo not drawn)", "%", -5.39],
  ["CC(C)Nc1nc2c(c(NC3CC3)n1)CCN(Cc1nccn1C)CC2", "%", 0.325],
  ["Cc1nnc(N2CCCC2)c(C(N)=O)c1C", "%", 7.19],
  ["Cc1cnn(CC2CN(CCCS(C)(=O)=O)CCO2)c1 (stereo not drawn)", "%", -2.45],
  ["Cc1ccc(NC(=O)c2cc3c(=O)n(C)c(=O)n(C)c3nc2C)cc1Cl", "%", -7.15],
  ["Cc1ccc(Cc2sc(NC(=O)C(C)S(C)(=O)=O)nc2C)cc1 (stereo not drawn)", "%", 13.1],
  ["COCC(=O)N1CCC(c2noc3nc(C)cc(C(F)(F)F)c23)CC1", "%", 2.78],
  ["Cc1ncsc1CCN1CCC(N(C)Cc2noc(C(C)C)n2)C1 (stereo not drawn)", "%", 2.17],
  ["O=C(CC1CCCO1)NCCCC(=O)Nc1ccc(Cl)cc1 (stereo not drawn)", "%", 2.91],
  ["Cc1ccc(C(=O)N2C[C@@H]3CN(S(C)(=O)=O)CCO[C@@H]3C2)s1", "%", -4.75],
  ["CCc1oc(C(=O)N2CC[C@@H]3CC[C@H](C2)N3)cc1CN(CC)CC", "%", 4.83],
  ["Cn1cnnc1C1CCCN(C(=O)NCc2ccc3c(c2)OCO3)C1 (stereo not drawn)", "%", -1.9],
  ["OCC1CCCN1c1cc(NCCc2ccccn2)ncn1 (stereo not drawn)", "%", -0.813],
  ["Cn1ccnc1CCNC(=O)C1CCCN(Cc2cccc(F)c2)C1 (stereo not drawn)", "%", -6.87],
  ["CCOc1ccc(N(CCC#N)C(=O)c2ccc(OC)nc2)cc1", "%", 2.52],
  ["O=C(NCCN1CCOCC1)c1cnc(Cc2ccc(F)cc2)s1", "%", 16.7],
  ["CCc1noc(CN(Cc2ccc3c(c2)OCO3)C2CCCC2)n1", "%", -0.315]
]}
